Below: a set of entries, each annotated with reported SI (CC50/EC50), ADV7.
System: ADV7
Experiment: Inhibition of ADV7-induced cytopathic effects in HeLa cells (MTT)
Assay type: cell-based, adenovirus type 7
Quantity Kind: SI (CC50/EC50), ADV7

{"Compound": "CC(=O)Oc1ccc(-c2ccccn2)c(OC(=O)c2ccccc2)c1", "Test System": "ADV7", "Quantity Kind": "SI (CC50/EC50), ADV7", "Cmp": "=", "Readout Number": 12.2}
{"Compound": "COc1ccc(-c2ccccn2)c(OC(=O)c2ccccc2)c1", "Test System": "ADV7", "Quantity Kind": "SI (CC50/EC50), ADV7", "Cmp": ">", "Readout Number": 12.9}
{"Compound": "Cc1ccc(OC(=O)C(C)(C)C)c(-c2ccccn2)c1", "Test System": "ADV7", "Quantity Kind": "SI (CC50/EC50), ADV7", "Cmp": ">", "Readout Number": 10}
{"Compound": "NC(=O)c1ncn([C@@H]2O[C@H](CO)[C@@H](O)[C@H]2O)n1 [Ribavirin, reference compound]", "Test System": "ADV7", "Quantity Kind": "SI (CC50/EC50), ADV7", "Cmp": "=", "Readout Number": 7.1}
{"Compound": "Cc1ccc(OC(=O)c2ccccc2)c(-c2ncccc2C)c1", "Test System": "ADV7", "Quantity Kind": "SI (CC50/EC50), ADV7", "Cmp": "=", "Readout Number": 4.9}

* * *

Test: Cytotoxicity on uninfected Hep-2 cells (MTT, 48 h)
Assay type: cell-based
Details: human, read-out: CC50 (reduce cell viability by 50%), CVB3 host cells
Method: Human laryngeal carcinoma cells (Hep-2) and human cervical carcinoma cells (HeLa) were maintained in DMEM (Gibco) supplemented with 10% fetal bovine serum (FBS; Gibco), 100 U/mL penicillin and streptomycin, and 2 mM L-glutamine. The antiviral activities of compounds against CVB3 and ADV7 were determined by measuring their inhibition of virus-induced CPEs in acutely infected Hep-2 and HeLa cells, respectively. […]
Quantity Kind: CC50 at 48 h

{"Molecule": "O=C(Oc1cc(Br)ccc1-c1ccccn1)c1ccccc1 [W10]", "Result": "184 µM"}
{"Molecule": "O=C(Oc1ccccc1-c1ccccn1)c1ccccc1 [W1]", "Result": "594 µM"}
{"Molecule": "CC(=O)c1ccc(-c2ccccn2)c(OC(=O)c2ccccc2)c1 [W14]", "Result": "490 µM"}
{"Molecule": "Cc1cccc(OC(=O)c2ccccc2)c1-c1ccccn1 [W3]", "Result": "630 µM"}
{"Molecule": "Cc1ccc(OC(=O)c2ccccc2)c(-c2ncccc2C)c1 [W6]", "Result": "244 µM"}
{"Molecule": "COc1ccc(-c2ccccn2)c(OC(=O)c2ccccc2)c1 [W2]", "Result": "240 µM"}
{"Molecule": "CC(=O)Oc1ccc(-c2ccccn2)c(OC(=O)c2ccccc2)c1 [W15]", "Result": "451 µM"}
{"Molecule": "NC(=O)c1ncn([C@@H]2O[C@H](CO)[C@@H](O)[C@H]2O)n1 [Ribavirin, reference compound]", "Result": "836 µM"}
{"Molecule": "Cc1cccnc1-c1ccc(Cl)cc1OC(=O)c1ccccc1 [W4]", "Result": "222 µM"}
{"Molecule": "Cc1cccnc1-c1sccc1OC(=O)c1ccccc1 [W7]", "Result": "350 µM"}

* * *

Assay: Cytotoxicity on uninfected Hep-2 cells (MTT, 48 h)
Type: cell-based
Details: human, read-out: CC50 (reduce cell viability by 50%), CVB3 host cells
Quantity Kind: log10(CC50 at 48 h) (log10 of the value in µM)

{"Substance Smiles": "O=C(Oc1cc(Cl)ccc1-c1ccccn1)c1ccccc1", "Readout Number": 2.17}
{"Substance Smiles": "O=C(Oc1ccsc1-c1ccccn1)c1ccccc1", "Readout Number": 2.58}
{"Substance Smiles": "Cc1ccc(OC(=O)C(C)(C)C)c(-c2ccccn2)c1", "Readout Number": 2.63}
{"Substance Smiles": "COc1ccc(OC(=O)c2ccccc2)c(-c2ncccc2C)c1", "Readout Number": 1.53}
{"Substance Smiles": "Cc1cccnc1-c1ccc(F)cc1OC(=O)c1ccccc1", "Readout Number": 2.55}
{"Substance Smiles": "Cc1cccnc1-c1ccc(Br)cc1OC(=O)c1ccccc1", "Readout Number": 2.11}

* * *

Tested on: CVB3
Assay: Inhibition of CVB3-induced cytopathic effects in Hep-2 cells (MTT)
Assay type: cell-based, Coxsackievirus B3
Kindly apply the following: Condition met if SI (CC50/EC50), CVB3 is less than 6, Condition not met in every other case.

{"Compound": "Cc1ccc(OC(=O)C(C)(C)C)c(-c2ccccn2)c1", "Class": "Condition not met"}
{"Compound": "O=C(Oc1cc(Br)ccc1-c1ccccn1)c1ccccc1", "Class": "Condition met"}
{"Compound": "COc1ccc(-c2ccccn2)c(OC(=O)c2ccccc2)c1", "Class": "Condition met"}
{"Compound": "Cc1cccnc1-c1ccc(F)cc1OC(=O)c1ccccc1", "Class": "Condition met"}
{"Compound": "CC(=O)Oc1ccc(-c2ccccn2)c(OC(=O)c2ccccc2)c1", "Class": "Condition not met"}
{"Compound": "NC(=O)c1ncn([C@@H]2O[C@H](CO)[C@@H](O)[C@H]2O)n1 [Ribavirin, reference compound]", "Class": "Condition not met"}
{"Compound": "Cc1ccc(OC(=O)c2ccccc2)c(-c2ncccc2C)c1", "Class": "Condition met"}
{"Compound": "Cc1cccnc1-c1ccc(Cl)cc1OC(=O)c1ccccc1", "Class": "Condition met"}
{"Compound": "CC(=O)c1ccc(-c2ccccn2)c(OC(=O)c2ccccc2)c1", "Class": "Condition met"}
